- Tested on: Rattus norvegicus
- ASSAY OVERVIEW: Gastrointestinal toxicity in Wistar albino rat assessed as ulcer index at 45 mg/kg, po after 12 hrs
- Type: organism-based
- Parameters: dose 45 mg/kg, route oral
- SETUP CONDITIONS: in vivo
Label condition met when UI < 0.8; otherwise condition not met.

> print(dat)
                                   compound  assigned.category
1  COc1ccc(C(=O)n2nc(C)c3nnc4cc(Cl)c(F)cc4c32)cc1      condition met
2  Cc1nn(C(=O)c2ccc(F)cc2)c2c1nnc1cc(Cl)c(F)cc12      condition met
3  Cc1ccc(C(=O)n2nc(C)c3nnc4cc(Cl)c(F)cc4c32)cc1      condition met
4  COc1ccc(C(=O)n2nc(C)c3nnc4cc(Cl)c(F)cc4c32)cc1OC      condition met
5  Cc1nn(C(=O)Cc2ccccc2)c2c1nnc1cc(Cl)c(F)cc12      condition met
6  Cc1nn(C(=O)c2ccc(N)cc2)c2c1nnc1cc(Cl)c(F)cc12  condition not met
7  COc1ccc2cc([C@H](C)C(=O)O)ccc2c1 [NAPROXEN]  condition not met

====

- Tested on: Rattus norvegicus
- ASSAY OVERVIEW: Induction of lipid peroxidation in Wistar albino rat assessed as Malondialdehyde level per 100 mg of tissue at 45 mg/kg, po after 12 hrs (reference value: 3.29 +/- 0.19 nmol/100 mg tissue)
- Assay type: organism-based
- Parameters: dose 45 mg/kg, route oral
- SETUP CONDITIONS: in vivo
Label satisfied when Activity < 5 nmol; otherwise not satisfied.

> print(dat)
                                   molecule  assigned.category
1  Cc1nn(C(=O)c2ccc(F)cc2)c2c1nnc1cc(Cl)c(F)cc12      not satisfied
2  COc1ccc(C(=O)n2nc(C)c3nnc4cc(Cl)c(F)cc4c32)cc1OC          satisfied
3  COc1ccc(C(=O)n2nc(C)c3nnc4cc(Cl)c(F)cc4c32)cc1          satisfied
4  Cc1nn(C(=O)c2ccc(N)cc2)c2c1nnc1cc(Cl)c(F)cc12      not satisfied
5  Cc1ccc(C(=O)n2nc(C)c3nnc4cc(Cl)c(F)cc4c32)cc1          satisfied
6  COc1ccc2cc([C@H](C)C(=O)O)ccc2c1 [NAPROXEN]      not satisfied
7  Cc1nn(C(=O)c2ccccc2)c2c1nnc1cc(Cl)c(F)cc12      not satisfied
8  Cc1nn(C(=O)Cc2ccccc2)c2c1nnc1cc(Cl)c(F)cc12      not satisfied

====

- TARGET OF ASSAY: Prostaglandin G/H synthase 2 (Homo sapiens, UniProt P35354)
- Sequence (P35354 whole entry): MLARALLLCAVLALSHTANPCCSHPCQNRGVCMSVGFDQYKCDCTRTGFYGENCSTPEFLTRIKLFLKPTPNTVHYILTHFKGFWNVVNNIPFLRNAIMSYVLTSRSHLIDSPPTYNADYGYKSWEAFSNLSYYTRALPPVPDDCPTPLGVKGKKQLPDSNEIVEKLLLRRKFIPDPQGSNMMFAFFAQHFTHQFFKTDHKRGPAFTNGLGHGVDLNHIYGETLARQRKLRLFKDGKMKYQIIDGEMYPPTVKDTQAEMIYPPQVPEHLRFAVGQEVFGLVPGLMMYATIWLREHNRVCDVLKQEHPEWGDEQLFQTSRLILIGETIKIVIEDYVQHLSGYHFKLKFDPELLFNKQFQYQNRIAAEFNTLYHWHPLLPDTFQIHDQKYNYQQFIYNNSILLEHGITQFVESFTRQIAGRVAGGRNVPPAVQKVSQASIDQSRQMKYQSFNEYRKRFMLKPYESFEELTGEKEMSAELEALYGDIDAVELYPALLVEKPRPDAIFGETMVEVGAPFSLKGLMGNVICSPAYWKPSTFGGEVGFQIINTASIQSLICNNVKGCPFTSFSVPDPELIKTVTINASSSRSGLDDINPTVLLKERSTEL
- ASSAY OVERVIEW: Inhibition of human recombinant COX2 using arachidonic acid as substrate and N,N,N,N-tetramethyl-p-phenylnediamine measured for 25 secs by spectrophotometric analysis
RESULT TYPE: IC50 (µM)

> print(dat)
                            chemical.smiles                           target.of.assay  reported.result
1  Cc1ccc(C(=O)n2nc(C)c3nnc4cc(Cl)c(F)cc4c32)cc1  Prostaglandin G/H synthase 2 (Homo sapiens, UniProt P35354)             12.8

====

- TARGET OF ASSAY: Prostaglandin G/H synthase 2 (Homo sapiens, UniProt P35354)
- ASSAY OVERVIEW: Inhibition of human recombinant COX2 using PGG2 as substrate and N,N,N,N-tetramethyl-p-phenylnediamine measured for 25 secs by spectrophotometric analysis
- SETUP CONDITIONS: in the assay text read “arachidonic acid as substrate” for “PGG2 as substrate”
pIC50: −log10 of the molar value.
RESULT TYPE: pIC50

> print(dat)
                            chemical.smiles  reported.result
1  COc1ccc(C(=O)n2nc(C)c3nnc4cc(Cl)c(F)cc4c32)cc1             5.00
